// data source = patent US20210253718A1

Measured median fluorescence of individual entries
- test.target: T1, FZD5 cysteine-rich domain (CRD), MYC-tagged and GPI-anchored on CHO cells (human, UniProt Q13467 29-156, GPI anchor)
- T1 construct: also called FZD5 CRD; CHO-myc-FZDGPI; not shown: MYC tag and GPI anchor signal
- T1 sequence: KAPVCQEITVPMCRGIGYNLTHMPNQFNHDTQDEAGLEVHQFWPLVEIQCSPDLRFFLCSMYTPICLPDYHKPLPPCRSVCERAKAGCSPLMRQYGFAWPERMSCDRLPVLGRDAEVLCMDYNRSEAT
- protocol.description: flow cytometry, CHO-CRD cells;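 note: flow cytometry of Fab binding to CHO cells overexpressing a Frizzled CRD, with binding defined as median fluorescence over twice that of CHO cells lacking any Frizzled CRD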
Form: value (number only, do not type unit).

Fab-2925 (Fab, V domains shown, Fab; also called Fv-2925) VH: EVQLVESGGGLVQPGGSLRLSCAASGFNLSYSSMHWVRQAPGKGLEWVASIYPSYGSTYYADSVKGRFTISADTSKNTAYLQMNSLRAEDTAVYYCARYGYFGLDYWGQGTLVTVSS VL: DIQMTQSPSSLSASVGDRVTITCRASQSVSSAVAWYQQKPGKAPKLLIYSASSLYSGVPSRFSGSRSGTDFTLTISSLQPEDFATYYCQQAWVYASLFTFGQGTKVEIK: 37.5

Prompt: Dear colleague, I am looking for the recorded median fluorescence of the following binder: Fab-2898 (Fab, V domains shown, Fab; also called Fv-2898) VH: EVQLVESGGGLVQPGGSLRLSCAASGFNIYSYSMHWVRQAPGKGLEWVASIYSSSGSTSYADSVKGRFTISADTSKNTAYLQMNSLRAEDTAVYYCARAVWGLDYWGQGTLVTVSS VL: DIQMTQSPSSLSASVGDRVTITCRASQSVSSAVAWYQQKPGKAPKLLIYSASSLYSGVPSRFSGSRSGTDFTLTISSLQPEDFATYYCQQWWGYYSLITFGQGTKVEIK
Completion: 32
